- Protocol: Dynamic solubility of crystal form in SGF, FaSSIF, FeSSIF and water (HPLC)
- Assay type: physicochemical
- Assay setup: simulated gastric fluid (SGF), simulated gastric fluid, thermodynamic from solid, SGF, equilibrated 24 h; read-out: Solubility SGF 24 h
- Protocol: When a drug solubility test was performed to predict the performances of a drug in vivo, it is important to simulate in vivo conditions as much as possible. For oral drugs, simulated gastric fluid (SGF), fasted state simulated intestinal fluid (FaSSIF) and fed state simulated intestinal fluid (FeSSIF) may be used to simulate in vivo conditions and predict a feeding effect, and the solubility tested in such media was closer to the solubility in the human body environment.

Compound: C=CC(=O)N1CCN(c2nc(=O)n(-c3c(C)ccnc3C(C)C)c3nc(-c4c(O)cccc4F)c(F)cc23)[C@@H](C)C1 [Anhydrous crystal form I, reference compound]
Unit of measure: µg/mL
solubility at 24 h: 3110

====

- Protocol: Dynamic solubility of crystal form in SGF, FaSSIF, FeSSIF and water (HPLC)
- Format: physicochemical
- Assay setup: fed state simulated intestinal fluid (FeSSIF), fessif, thermodynamic from solid, FeSSIF, equilibrated 24 h; read-out: Solubility FeSSIF 24 h

Molecule: C=CC(=O)N1CCN(c2nc(=O)n(-c3c(C)ccnc3C(C)C)c3nc(-c4c(O)cccc4F)c(F)cc23)[C@@H](C)C1 [Anhydrous crystal form I, reference compound]
solubility at 24 h (µg/mL): 60

====

- Protocol: Dynamic solubility of crystal form in SGF, FaSSIF, FeSSIF and water (HPLC)
- Type: physicochemical
- Assay setup: simulated gastric fluid (SGF), simulated gastric fluid, thermodynamic from solid, SGF, equilibrated 1 h

Compound: C=CC(=O)N1CCN(c2nc(=O)n(-c3c(C)ccnc3C(C)C)c3nc(-c4c(O)cccc4F)c(F)cc23)[C@@H](C)C1 [Anhydrous crystal form I, reference compound]
solubility at 1 h [µg/mL]: 3770

====

- Protocol: Dynamic solubility of crystal form in SGF, FaSSIF, FeSSIF and water (HPLC)
- Type: physicochemical
- Assay setup: fasted state simulated intestinal fluid (FaSSIF), fassif, thermodynamic from solid, FaSSIF, equilibrated 24 h; read-out: Solubility FaSSIF 24 h
Measurement name: solubility at 24 h

Compound: C=CC(=O)N1CCN(c2nc(=O)n(-c3c(C)ccnc3C(C)C)c3nc(-c4c(O)cccc4F)c(F)cc23)[C@@H](C)C1 [Anhydrous crystal form I, reference compound]
Measurement name: solubility at 24 h
Result: 30 µg/mL

====

- Protocol: Dynamic solubility of crystal form in SGF, FaSSIF, FeSSIF and water (HPLC)
- Type: physicochemical
- Assay setup: simulated gastric fluid (SGF), simulated gastric fluid, thermodynamic from solid, SGF, equilibrated 4 h
Measurement name: solubility at 4 h (µg/mL)

Molecule: C=CC(=O)N1CCN(c2nc(=O)n(-c3c(C)ccnc3C(C)C)c3nc(-c4c(O)cccc4F)c(F)cc23)[C@@H](C)C1 [Anhydrous crystal form I, reference compound]
Unit of measure: µg/mL
Recorded number: 3860
